Consider the following compounds; for each one, report its Slope of ΔA593 versus concentration.
assay: FRAP assay (reduction of Fe(III) to Fe(II)); format: biochemical; set-up: unit not given here; settings: Reaction time 15 min, 37° C.
Answers are plain numbers.

Some solved entries appear below for comparison.
>>> val("COc1cc(C=O)cc(OC)c1O [Syringaldehyde]")
0.081
>>> val("O=C1O[C@H]([C@@H](O)CO)C(O)=C1O [Ascorbic acid, ascorbic acid]")
0.0255
>>> val("COc1cc(CN(Cc2ccc(CN(Cc3cc(OC)c(O)c(OC)c3)Cc3cc(OC)c(O)c(OC)c3)cc2)Cc2cc(OC)c(O)c(OC)c2)cc(OC)c1O [Compound 1]")
0.175

Now examine the next entry.
I have this compound here, Cc1c(C)c2c(c(C)c1O)CCC(C)(C(=O)O)O2 (stereo not shown) [Trolox] , and I need its recorded Slope of ΔA593 versus concentration.
0.0269

---

Consider the following compounds; for each one, report its pIC50.
assay: DPPH radical assay; settings: read-out: DPPH IC50 at 120 min; Example 15
Numbers only, as −log10 of the molar value.

Some solved entries appear below for comparison.
>>> val("Cc1c(C)c2c(c(C)c1O)CCC(C)(C(=O)O)O2 (centres unmarked) [Trolox]")
4.52
>>> val("COc1cc(CN(Cc2ccc(CN(Cc3cc(OC)c(O)c(OC)c3)Cc3cc(OC)c(O)c(OC)c3)cc2)Cc2cc(OC)c(O)c(OC)c2)cc(OC)c1O [Compound 1]")
5.40
>>> val("O=c1c(O)c(-c2ccc(O)c(O)c2)oc2cc(O)cc(O)c12 [quercetin]")
5.00
>>> val("COc1cc(CN(CCN(CCN(Cc2ccc(O)c(OC)c2)Cc2ccc(O)c(OC)c2)CCN(Cc2ccc(O)c(OC)c2)Cc2ccc(O)c(OC)c2)Cc2ccc(O)c(OC)c2)ccc1O [Compound 5]")
5.70

I have this compound here, COc1cc(CN(CCN(CCN(Cc2cc(OC)c(O)c(OC)c2)Cc2cc(OC)c(O)c(OC)c2)CCN(Cc2cc(OC)c(O)c(OC)c2)Cc2cc(OC)c(O)c(OC)c2)Cc2cc(OC)c(O)c(OC)c2)cc(OC)c1O [Compound 4] , and I need its recorded pIC50.
5.70

---

Consider the following compounds; for each one, report its TEAC.
experiment: ABTS radical cation decolorization assay; assay type: biochemical; conditions: slope divided by that of Trolox; % decrease in A734 at 6 min, ethanol

>>> val("O=C1O[C@H]([C@@H](O)CO)C(O)=C1O [Ascorbic acid, ascorbic acid]")
0.9

# per-item lookup of TEAC; items listed below
1. COc1cc(CN(Cc2ccc(CN(Cc3cc(OC)c(O)c(OC)c3)Cc3cc(OC)c(O)c(OC)c3)cc2)Cc2cc(OC)c(O)c(OC)c2)cc(OC)c1O [Compound 1]
2. COc1cc(C=O)cc(OC)c1O [Syringaldehyde]
3. Cc1c(C)c2c(c(C)c1O)CCC(C)(C(=O)O)O2 (stereo not shown) [Trolox]

[8.48, 0.98, 1]

---

Consider the following molecules; for each one, report its EC1 (concentration with ferric-TPTZ reducing ability equivalent to 1 mM FeSO4.7H2O).
test: FRAP assay (reduction of Fe(III) to Fe(II)); assay type: biochemical; conditions: 5 min
Give bare numbers, in µM.

>>> val("O=C1O[C@H]([C@@H](O)CO)C(O)=C1O [Ascorbic acid, ascorbic acid]")
505

# per-item lookup of EC1 (concentration with ferric-TPTZ reducing ability equivalent to 1 mM FeSO4.7H2O); items listed below
1. Cc1c(C)c2c(c(C)c1O)CCC(C)(C(=O)O)O2 (stereo not shown) [Trolox]
2. COc1cc(CN(Cc2ccc(CN(Cc3cc(OC)c(O)c(OC)c3)Cc3cc(OC)c(O)c(OC)c3)cc2)Cc2cc(OC)c(O)c(OC)c2)cc(OC)c1O [Compound 1]
3. COc1cc(C=O)cc(OC)c1O [Syringaldehyde]

1: 450; 2: 74; 3: 194

---

Consider the following molecules; for each one, report its Slope of ΔA593 versus concentration.
experiment: FRAP assay (reduction of Fe(III) to Fe(II)); type: biochemical; design: unit not given here; details: Reaction time 5 min, 37° C.

>>> val("COc1cc(CN(Cc2ccc(CN(Cc3cc(OC)c(O)c(OC)c3)Cc3cc(OC)c(O)c(OC)c3)cc2)Cc2cc(OC)c(O)c(OC)c2)cc(OC)c1O")
0.163

# per-item lookup of Slope of ΔA593 versus concentration; items listed below
1. Cc1c(C)c2c(c(C)c1O)CCC(C)(C(=O)O)O2 (stereo not shown)
2. O=C1O[C@H]([C@@H](O)CO)C(O)=C1O
3. COc1cc(C=O)cc(OC)c1O

1: 0.0268; 2: 0.0238; 3: 0.062
